# Test system: T47D cell line
# assay: Cytotoxic assay (MTT) in monolayer model, T47D
# Type: cell-based
# details: Homo sapiens, 48 h, read-out: IC50 cytotoxic assay against T47D, monolayer
measuredMetric: IC50 (nM)
Note: unit nM is implicit; provide only the numeric part.

See these solved cases before continuing.
>  <molSmiles>
COc1cccc(C(=O)Nc2cccnc2CC(=O)NCc2ccccc2)c1

>  <IC50 (nM)>
97

$$$$
>  <molSmiles>
O=C(Cc1ccc(NC(=O)c2cccc(Cl)c2)cn1)NCc1ccccc1

>  <IC50 (nM)>
1.2

$$$$

Q: What value of IC50 has been reported for the following compound? O=C(Cc1ccc(NC(=O)c2cccc(OCCN3CCOCC3)c2)cc1)NCc1ccccc1
Ans: 1

---

# System: MCF7 cell line
# assay: Cytotoxic assay (MTT) in monolayer model, MCF7
# Format: cell-based
# details: Homo sapiens, 48 h, read-out: IC50 MCF-7 cell line inhibition, monolayer
measuredMetric: pIC50
For clarity, pIC50 is expressed as the negative log10 of concentration in mol/L.

See these solved cases before continuing.
>  <compound>
COc1cccc(C(=O)Nc2cccnc2CC(=O)NCc2ccccc2)c1

>  <pIC50>
6.83

$$$$
>  <compound>
O=C(Cc1ccc(NC(=O)c2ccc(Cl)o2)cc1)NCc1ccccc1 [MAK-10]

>  <pIC50>
6.65

$$$$
>  <compound>
COc1ccc(C(=O)Nc2ccc(CC(=O)NCc3ccccc3)cc2)cc1OC [MAK-2]

>  <pIC50>
8.22

$$$$

Q: What value of pIC50 has been reported for the following compound? COc1ccc(C(=O)Nc2ccc(CC(=O)NCc3ccccc3)cc2)cc1Cl [MAK-4]
Ans: 6.65

---

# assay: Maximum kinetic aqueous solubility
# Assay type: physicochemical
# details: phosphate buffer with 2% DMSO, kinetic from dmso stock, 2% DMSO/PBS, pH 7.4, read-out: maximum kinetic aqueous solubility (saturation)
The following molecules are listed with their measured solubility kinetic at 90 min values.
Note: unit µM is implicit; provide only the numeric part.

>  <molecule>
COc1cccc(C(=O)Nc2ccc(CC(=O)NCc3ccccc3)cc2)c1 [MAK-1]

>  <measuredMetric>
solubility kinetic at 90 min

>  <observed>
9.4

$$$$

Now for a further molecule.
Q: What value of solubility kinetic at 90 min has been reported for the following molecule? O=C(Cc1ccc(NC(=O)c2cccc(Cl)c2)cn1)NCc1ccccc1 [MAK-6]
Ans: 3.7

---

measuredMetric: melting point (°C)
Note: unit °C is implicit; provide only the numeric part.

>  <molSmiles>
COc1ccc(C(=O)Nc2ccc(CC(=O)NCc3ccccc3)cc2)cc1OC

>  <measuredMetric>
melting point

>  <unitDescriptor>
°C

>  <observed>
215

$$$$
>  <molSmiles>
O=C(Cc1ccc(NC(=O)c2ccc(Cl)o2)cc1)NCc1ccccc1

>  <measuredMetric>
melting point

>  <unitDescriptor>
°C

>  <observed>
217

$$$$
>  <molSmiles>
O=C(Cc1ccc(NC(=O)c2ccc(OCCN3CCOCC3)c(Cl)c2)cc1)NCc1ccccc1

>  <measuredMetric>
melting point

>  <unitDescriptor>
°C

>  <observed>
147

$$$$

Q: What value of melting point has been reported for the following compound? COc1ccc(C(=O)Nc2ccc(CC(=O)NCc3ccccc3)cc2)cc1Cl
Ans: 186

Q: What value of melting point has been reported for the following compound? O=C(Cc1ccc(NC(=O)c2cncc(Cl)c2)cc1)NCc1ccccc1
Ans: 231
